Attribution: ChEMBL document CHEMBL4840314

target: Probable periplasmic serine endoprotease DegP-like (Chlamydia trachomatis, UniProt P18584); test: Inhibition of recombinant ctHtrA serine protease using MeOCoum-ENLHLPLPI1F-D as substrate pretreated for 10 min followed by substrate addition and measured after 30 minutes
Sequence (P18584 whole entry): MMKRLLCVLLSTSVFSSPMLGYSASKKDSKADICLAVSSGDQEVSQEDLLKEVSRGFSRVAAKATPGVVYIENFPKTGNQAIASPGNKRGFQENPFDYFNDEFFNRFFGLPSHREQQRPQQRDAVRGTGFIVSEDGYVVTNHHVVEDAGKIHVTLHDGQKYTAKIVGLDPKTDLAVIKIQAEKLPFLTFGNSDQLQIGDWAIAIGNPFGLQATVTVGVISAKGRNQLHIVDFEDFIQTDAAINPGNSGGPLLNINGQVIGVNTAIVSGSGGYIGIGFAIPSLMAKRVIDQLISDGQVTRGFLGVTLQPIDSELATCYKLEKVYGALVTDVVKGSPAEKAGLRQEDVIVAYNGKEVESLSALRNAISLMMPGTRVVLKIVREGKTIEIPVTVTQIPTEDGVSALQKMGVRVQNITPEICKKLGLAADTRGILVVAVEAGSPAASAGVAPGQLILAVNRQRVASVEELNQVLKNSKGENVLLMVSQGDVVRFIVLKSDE
measure.name: pIC50
The quantity pIC50 is defined as the negative base-10 logarithm of the molar concentration.

Inquiry: Look up pIC50 with Probable periplasmic serine endoprotease DegP-like (Chlamydia trachomatis, UniProt P18584) for this molecule: CCC(C)C(NC(=O)[C@@H]1CCCN1C(=O)[C@@H](NC(=O)OC(C)(C)C)C(C)(C)C)P(=O)(Oc1ccccc1)Oc1ccccc1 (some centres not stated)
Reply text: 4.99

Inquiry: Please tell me: pIC50 of CC(C)C(NC(=O)[C@@H]1CCCN1C(=O)[C@@H](NC(=O)OC(C)(C)C)C(C)(C)C)P(=O)(Oc1ccccc1)Oc1ccccc1 (some centres not stated) , system Probable periplasmic serine endoprotease DegP-like (Chlamydia trachomatis, UniProt P18584)?
Reply text: 5.03

Inquiry: Enter reported pIC50 observed with Probable periplasmic serine endoprotease DegP-like (Chlamydia trachomatis, UniProt P18584) for CCC(C)C(NC(=O)C(C)n1cccc(NC(=O)OC(C)(C)C)c1=O)P(=O)(Oc1ccccc1)Oc1ccccc1 (configuration not stated)
Reply text: 3.89

Inquiry: Lab request: please report pIC50 under test system Probable periplasmic serine endoprotease DegP-like (Chlamydia trachomatis, UniProt P18584) for CCC(C)C(NC(=O)[C@@H]1CCCN1C(=O)[C@@H](NC(=O)OCc1ccccc1)C(C)(C)C)P(=O)(Oc1ccccc1)Oc1ccccc1 (some centres not stated)
Reply text: 4.60

Inquiry: Record lookup: for Probable periplasmic serine endoprotease DegP-like (Chlamydia trachomatis, UniProt P18584), what pIC50 belongs to CC(C)C(NC(=O)C(C)n1cccc(NC(=O)Oc2ccccc2)c1=O)P(=O)(Oc1ccccc1)Oc1ccccc1 (configuration not stated) ?
Reply text: 4.38

Inquiry: State its pIC50 on Probable periplasmic serine endoprotease DegP-like (Chlamydia trachomatis, UniProt P18584): CCC(C)C(NC(=O)C(C)n1cccc(NC(=O)Oc2ccccc2)c1=O)P(=O)(Oc1ccccc1)Oc1ccccc1 (configuration not stated)
Reply text: 4.70

Inquiry: Reported pIC50 for Probable periplasmic serine endoprotease DegP-like (Chlamydia trachomatis, UniProt P18584), given CC(C)C(NC(=O)[C@@H]1CCCN1C(=O)[C@@H](NC(=O)OC(C)(C)C)C(C)C)P(=O)(Oc1ccccc1)Oc1ccccc1 (some centres not stated) ?
Reply text: 4.90

----------
system: HEp-2; assay: Cytotoxicity against human HEp-2 cells assessed as reduction in MTS absorbance at 100 uM by MTS assay; type: cell-based; set-up: scale not given: the % may be the effect or the level left; conditions: hep-2, 100 µM
measure.name: Activity

1. CC(C)C(NC(=O)C(C)n1cccc(NC(=O)Oc2ccccc2)c1=O)P(=O)(Oc1ccccc1)Oc1ccccc1 (centres undefined) = <= 25%
2. CC(C)C(NC(=O)[C@@H]1CCCN1C(=O)[C@@H](NC(=O)OC(C)(C)C)C(C)C)P(=O)(Oc1ccccc1)Oc1ccccc1 (some centres undefined) = <= 25%
3. CCC(C)C(NC(=O)C(C)n1cccc(NC(=O)Oc2ccccc2)c1=O)P(=O)(Oc1ccccc1)Oc1ccccc1 (centres undefined) = <= 25%
4. CC(C)C(NC(=O)[C@@H]1CCCN1C(=O)[C@@H](NC(=O)OCc1ccccc1)C(C)(C)C)P(=O)(Oc1ccccc1)Oc1ccccc1 (some centres undefined) = Toxic
